target: P. falciparum apicoplast DNA polymerase (Pf-apPOL) (Plasmodium falciparum); assay: Fluorescence-based high-throughput DNA polymerase assay (molecular beacon), primary screen and dose-response; assay type: biochemical; conditions: DRC-1; 180'; concentration 20;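 also: test concentration in µM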
Sequence (Q8ILY1 entry or part of it): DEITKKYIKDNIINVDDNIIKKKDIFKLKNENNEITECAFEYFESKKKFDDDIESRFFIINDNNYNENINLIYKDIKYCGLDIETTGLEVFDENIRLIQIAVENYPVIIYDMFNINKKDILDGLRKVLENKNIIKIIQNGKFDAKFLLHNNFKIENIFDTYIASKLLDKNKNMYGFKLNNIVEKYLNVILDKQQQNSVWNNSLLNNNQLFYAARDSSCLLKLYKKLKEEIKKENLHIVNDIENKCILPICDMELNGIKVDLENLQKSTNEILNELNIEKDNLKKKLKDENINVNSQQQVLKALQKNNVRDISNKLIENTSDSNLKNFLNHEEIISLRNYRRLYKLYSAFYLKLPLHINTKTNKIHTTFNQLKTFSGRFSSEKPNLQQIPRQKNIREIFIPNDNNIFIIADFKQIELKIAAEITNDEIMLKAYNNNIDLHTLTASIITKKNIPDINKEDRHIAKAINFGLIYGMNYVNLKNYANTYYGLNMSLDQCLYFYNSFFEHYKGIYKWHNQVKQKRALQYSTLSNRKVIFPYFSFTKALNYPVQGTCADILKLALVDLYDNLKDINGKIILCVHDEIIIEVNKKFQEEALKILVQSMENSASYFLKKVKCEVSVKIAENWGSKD
As shown below, each of these molecules has a reported % inhibition apPOL 180' value.
recorded_endpoint: % inhibition apPOL 180' (%)

[
  {
    "molecule": "NS(=O)(=O)c1ccc(NC(=O)c2ccc(N3C(=O)CCC3=O)cc2)cc1",
    "test_result": 15.4098
  },
  {
    "molecule": "COCCN(CCOC)Cc1c(O)ccc2c1OC(=Cc1cc(Br)ccc1OC)C2=O",
    "test_result": 74.003
  },
  {
    "molecule": "COc1ccc(-c2cc(=O)c3cc(O)ccc3o2)cc1OC",
    "test_result": 31.1115
  },
  {
    "molecule": "Cc1ncc(CSc2nc(C(C)(C)C)cs2)c(CO)c1O",
    "test_result": 8.562
  },
  {
    "molecule": "CCOC(=O)C(NCc1ccco1)(NC(=O)c1ccco1)C(F)(F)F (stereo not drawn)",
    "test_result": 2.395
  },
  {
    "molecule": "Cc1ccc(NC(=O)C2CCN(C(=O)c3cc4ccsc4[nH]3)CC2)c(Br)c1",
    "test_result": 61
  },
  {
    "molecule": "O=C1N/C(=N/c2ccccc2Cl)S/C1=C/c1ccc([N+](=O)[O-])o1",
    "test_result": 23.638
  },
  {
    "molecule": "O=[N+]([O-])c1cc2c(cc1CN1CCN(c3cccc(Cl)c3)CC1)OCO2",
    "test_result": 32.6998
  },
  {
    "molecule": "Cl.NC(CO)C(=O)NNCc1ccc(O)c(O)c1O (stereo not drawn)",
    "test_result": 57.9843
  }
]

meta.source: paper PMC9090415
